# experimental-system: hCGRP receptor (CALCRL:RAMP1) (Homo sapiens, UniProt O60894+Q16602)
# Construct: host or cells: GeneBLAzer CALCRL:RAMP1-CRE-bla Freestyle 293F
# Sequence (Q16602 23-461): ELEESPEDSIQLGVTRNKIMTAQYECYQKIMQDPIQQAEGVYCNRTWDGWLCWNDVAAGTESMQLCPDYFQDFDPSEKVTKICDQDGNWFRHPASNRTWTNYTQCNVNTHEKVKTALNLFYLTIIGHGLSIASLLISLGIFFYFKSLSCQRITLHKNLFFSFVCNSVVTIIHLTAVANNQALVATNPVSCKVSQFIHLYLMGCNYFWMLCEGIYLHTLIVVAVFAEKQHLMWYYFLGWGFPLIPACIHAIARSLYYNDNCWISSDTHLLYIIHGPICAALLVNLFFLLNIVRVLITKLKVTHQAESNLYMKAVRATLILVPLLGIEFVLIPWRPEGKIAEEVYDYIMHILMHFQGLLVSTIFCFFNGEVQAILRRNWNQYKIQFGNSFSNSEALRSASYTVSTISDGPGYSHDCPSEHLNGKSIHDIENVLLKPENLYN
# Sequence (O60894 27-148): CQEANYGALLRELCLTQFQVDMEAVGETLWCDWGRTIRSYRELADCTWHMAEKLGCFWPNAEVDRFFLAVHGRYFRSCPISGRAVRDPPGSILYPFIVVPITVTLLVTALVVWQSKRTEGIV
# protocol-notes: CGRP receptor antagonist activity measured by cAMP assay (HTRF)
# Type: cell-based
# measurement-parameters: % MPE: percent of the maximal possible effect; agonist human α-CGRP; read-out: hCGRP-R Efficacy Antag (%) Ave
Numbered stars: 1 amine (or outer) side, 2 acyl side, 3 side chain; on linkers, the order of the positions; unused ones are H or OH. Bridge positions count the residues as written; N and C are the ends. Square brackets hold non-standard residues; d marks the D form. Peptide text beside a SMILES is read from it. * marks the point of attachment. Phe(2-CONH2) = NC(=O)c1ccccc1C[C@H](N)C(=O)O; X5 = O=C([C@H](Cc1ccc(CO)cc1)N[*:1])[*:2]; Triazol3yl(1,2,4-5-NH2) = Nc1nc(*)n[nH]1; Orn(iPr) = CC(C)NCCC[C@H](N)C(=O)O; Oxazole2carbonyl = O=C(c1ncco1)*; 3Pal = N[C@@H](Cc1cccnc1)C(=O)O; Picolinoyl = O=C(c1ccccn1)*; ΔPro = O=C(O)[C@@H]1C=CCN1; Orn = NCCC[C@H](N)C(=O)O
Please respond with reported Emax for every item in the list.
Answer in %, number only, no unit symbol.

**Q:** Notebook entry, hCGRP receptor (CALCRL:RAMP1) (Homo sapiens, UniProt O60894+Q16602) assay: Emax of CC(C)NCCC[C@@H]1NC(=O)[C@@H](NC(=O)[C@H](Cc2ccccc2C(N)=O)NC(=O)[C@H](NC(=O)c2ncco2)C(C)C)CSSC[C@@H](C(=O)N[C@@H](Cc2cccnc2)C(N)=O)NC(=O)[C@H](Cc2cccnc2)NC(=O)[C@@H]2C=CCN2C(=O)CNC(=O)[C@H](C(C)C)NC(=O)[C@H](CC(=O)O)NC1=O [Compound 58] (Oxazole2carbonyl-[dV][Phe(2-CONH2)]C[Orn(iPr)]DVG[ΔPro][3Pal]C[3Pal]-NH2; disulfide 3-10) = ?
**A:** 100

**Q:** Note, next up: CC(C)NCCC[C@@H]1NC(=O)[C@@H](NC(=O)[C@H](Cc2ccccc2C(N)=O)NC(=O)[C@H](NC(=O)c2ncco2)C(C)C)CSSC[C@@H](C(=O)N[C@@H](Cc2cccnc2)C(N)=O)NC(=O)[C@H](Cc2ccc(O)cc2)NC(=O)[C@@H]2C=CCN2C(=O)CNC(=O)[C@H](C(C)C)NC(=O)[C@H](CC(=O)O)NC1=O [Compound 57] (Oxazole2carbonyl-[dV][Phe(2-CONH2)]C[Orn(iPr)]DVG[ΔPro]YC[3Pal]-NH2; disulfide 3-10)
**A:** 100

**Q:** Note, next up: CC(C)NCCC[C@@H]1NC(=O)[C@@H](NC(=O)[C@H](Cc2ccccc2C(N)=O)NC(=O)[C@H](NC(=O)c2ncco2)C(C)C)CSSC[C@@H](C(=O)N[C@@H](Cc2cccnc2)C(N)=O)NC(=O)[C@H](Cc2ccc(CO)cc2)NC(=O)[C@@H]2CCCN2C(=O)CNC(=O)[C@H](C(C)C)NC(=O)[C@H](CC(=O)O)NC1=O [Compound 64] (Oxazole2carbonyl-[dV][Phe(2-CONH2)]C[Orn(iPr)]DVGP[X5]C[3Pal]-NH2; disulfide 3-10)
**A:** 101

**Q:** Note, next up: CC(C)NCCC[C@@H]1NC(=O)[C@@H](NC(=O)[C@H](Cc2ccc(O)cc2)NC(=O)[C@H](NC(=O)c2ncco2)C(C)C)CSSC[C@@H](C(=O)N[C@@H](Cc2cccnc2)C(N)=O)NC(=O)[C@H](Cc2ccc(CO)cc2)NC(=O)[C@@H]2C=CCN2C(=O)CNC(=O)[C@H](C(C)C)NC(=O)[C@H](CC(=O)O)NC1=O [Compound 70] (Oxazole2carbonyl-[dV]YC[Orn(iPr)]DVG[ΔPro][X5]C[3Pal]-NH2; disulfide 3-10)
**A:** 100

**Q:** Note, next up: CC(C)[C@@H]1NC(=O)[C@H](CC(=O)O)NC(=O)[C@H](CCCNc2nc(N)n[nH]2)NC(=O)[C@@H](NC(=O)[C@H](Cc2ccc(O)cc2)NC(=O)[C@H](NC(=O)c2ccccn2)C(C)C)CSSC[C@@H](C(=O)N[C@@H](Cc2cccnc2)C(N)=O)NC(=O)[C@H](Cc2ccccc2)NC(=O)[C@@H]2CCCN2C(=O)CNC1=O [Compound 27] (Picolinoyl-[dV]YC[Orn](Triazol3yl(1,2,4-5-NH2))DVGPFC[3Pal]-NH2; disulfide 3-10)
**A:** 100
